subject of test: β5 subunit of the human constitutive proteasome (CPS) (Homo sapiens, UniProt P28074)
assay overview: β5 inhibition assay, human constitutive proteasome (Suc-LLVY-AMC)
test context: IC50 class, Suc-LLVY-AMC substrate
test readout: IC50

Which value of IC50 has been reported for Cc1ccc2cc1CNC(=O)[C@H](CCc1ccccc1)NC(=O)[C@@H](NC(=O)CCN1CCC3(CCC3)C1)CC(=O)N1CCCC(CCO2)C1 (stereo partly drawn) in the records? < 100 nM

Name the reported IC50 value associated with the compound Cc1ccc2cc1CNC(=O)C(CCc1cccnc1)NC(=O)CCC(=O)N1CCCC(CCO2)C1 (stereo not drawn) < 100 nM

Fill in: IC50 of Cc1ccc2cc1CNC(=O)[C@H](CCc1ccccc1)NC(=O)[C@@H](NC(=O)c1cccc3cc(N)ncc13)CC(=O)N1CCCC(CCO2)C1 (stereo partly drawn) is ___ < 100 nM

###

Test system: HT-29 cells
assay overview: CellTiter-Glo luminescent cell viability assay with HT-29 cells (72h incubation)
Type: cell-based, human
test context: Homo sapiens, HT-29, HT29 cells, read-out: CTG HT29
pIC50: −log10 of the molar value.
Listing of recorded pIC50 by entry.

Examples from the recorded data:
| compound | subject of test | result |
| --- | --- | --- |
| Cc1ccc2cc1CNC(=O)[C@H](CCc1ccccc1)NC(=O)[C@@H](NC(=O)OCc1ccccc1)CCC(=O)N1CCC(CCO2)C1 (stereo partly shown) | HT-29 cells | > 7.00 |
| Cc1cc2cc(c1C)CNC(=O)[C@H](CCc1ccccc1)NC(=O)CCC(=O)N1CCCC(CCO2)C1 (stereo partly shown) | HT-29 cells | 6.00 to 6.30 |
| CC(=O)N[C@H]1CC(=O)NCCOc2ccc(C)c(c2)CNC(=O)[C@H](CCc2ccccc2)NC1=O | HT-29 cells | 6.30 to 7.00 |
| Cc1cc2cc(c1C)CNC(=O)[C@H](CCc1ccccc1)NC(=O)[C@@H](NC(=O)OCc1ccccc1)CCCC(=O)NCCCCO2 | HT-29 cells | 6.30 to 7.00 |
| Cc1ccc2cc1CNC(=O)[C@H](CCc1ccccc1)NC(=O)[C@@H](NC(=O)Cc1csc(N)n1)CC(=O)N1CCCC(CCO2)C1 (stereo partly shown) | HT-29 cells | > 7.00 |

I have this compound here, CC(=O)N[C@H]1CC(=O)N2CC(COc3ccc(C)c(c3)CNC(=O)[C@H](CCc3ccccc3)NC1=O)C2 , and I need its recorded pIC50. 6.30 to 7.00

Would you mind telling me what pIC50 value was observed for Cc1ccc2cc1CNC(=O)[C@H](CCc1ccccc1)NC(=O)[C@@H](NC(=O)Cc1ccccc1)CC(=O)N1CCCC(CCO2)C1 (stereo partly shown) ? > 7.00

What measured pIC50 goes with Cc1ccc2cc1CNC(=O)[C@H](CCc1ccccc1)NC(=O)[C@@H](NC(=O)Cc1ccc(N)cc1C)CC(=O)N1CCCC(CCO2)C1 (stereo partly shown) ? > 7.00

I am curious: what pIC50 value has been reported for Cc1ccc2cc1CNC(=O)[C@H](CCc1ccccc1)NC(=O)[C@@H](NC(=O)c1n[nH]c3ccccc13)CC(=O)N1CCCC(CCO2)C1 (stereo partly shown) ? > 7.00

Given the entry Cc1ccc2cc1CNC(=O)[C@H](CCc1ccccc1)NC(=O)[C@@H](NC(=O)c1cccc3cc(N)ncc13)CC(=O)N1CCCC(CCO2)C1 (stereo partly shown) , report its measured pIC50. > 7.00

Recorded pIC50 of Cc1ccc2cc1CNC(=O)[C@H](CCc1ccccc1)NC(=O)[C@@H](NC(=O)c1ccncc1)CC(=O)N1CCCC(CCO2)C1 (stereo partly shown) , please. > 7.00

Give its pIC50 value. Item: Cc1ccc2cc1CNC(=O)C(CCc1cnccn1)NC(=O)[C@@H](NC(=O)[C@@H](C)c1ccccc1)CC(=O)N1CCCC(CCO2)C1 (stereo partly shown) > 7.00

What value of pIC50 has been recorded for this entry: Cc1ccc2cc1CNC(=O)[C@H](CCc1ccccc1)NC(=O)[C@@H](NC(=O)CCc1ccccc1-c1ccccc1)CC(=O)N1CCCC(CCO2)C1 (stereo partly shown) > 7.00

###

Test system: HT-29 cells
assay overview: CellTiter-Glo luminescent cell viability assay with HT-29 cells (72h incubation)
Format: cell-based, human
test context: Homo sapiens, HT-29, HT29 cells, read-out: CTG HT29
pIC50: −log10 of the molar value.
test readout: pIC50

Below, 3 molecules whose answers are already recorded.
| molecule | result |
| --- | --- |
| Cc1ccc2cc1CNC(=O)C(CCc1cccnc1)NC(=O)CCC(=O)N1CCCC(CCO2)C1 (stereo not shown) | 5.30 to 6.00 |
| Cc1ccc2cc1CNC(=O)[C@H](CCc1ccccc1)NC(=O)[C@@H](NC(=O)CN1CCCC1)CC(=O)N1CCCC(CCO2)C1 (stereo partly shown) | > 7.00 |
| Cc1ccc2cc1CNC(=O)[C@H](CCc1ccccc1)NC(=O)CCCC(=O)N1CCCC(CCO2)C1 (stereo partly shown) | 5.30 to 6.00 |

From here, focus on the item given below.
Can you look up the measured pIC50 of CC(=O)N[C@H]1CCCC(=O)NCCCCOc2ccc(C)c(c2)CNC(=O)[C@H](CCc2ccccc2)NC1=O for me? 5.30 to 6.00

###

Measured pIC50, listed per entry for reference.
System: Karpas cells
assay overview: Glo assay of Karpas cells (Table 3; ProteasomeGlo plating scheme)
Format: cell-based
test context: read-out: Pglo Karpas
pIC50: −log10 of the molar value.

Consider the reported pIC50 for these compounds:
| compound | result |
| --- | --- |
| CO[C@@H](C(=O)N[C@H]1CC(=O)N2CCCC(CCOc3ccc(C)c(c3)CNC(=O)[C@H](CCc3ccccc3)NC1=O)C2)c1ccccc1 (stereo partly drawn) | > 7.00 |
| CCC(C(=O)N[C@H]1CC(=O)N2CCCC(CCOc3ccc(C)c(c3)CNC(=O)[C@H](CCc3ccccc3)NC1=O)C2)c1ccc(OC)c(OC)c1 (stereo partly drawn) | > 7.00 |

For the compound shown here, Cc1ccc2cc1CNC(=O)[C@H](CCc1ccccc1)NC(=O)[C@@H](NC(=O)c1n[nH]c3ccccc13)CC(=O)N1CCCC(CCO2)C1 (stereo partly drawn) , give the reported pIC50. 6.30 to 7.00

###

Listed below: pIC50 values for each entry.
Tested on: HT-29 cells
assay overview: CellTiter-Glo luminescent cell viability assay with HT-29 cells (72h incubation)
Format: cell-based, human
test context: Homo sapiens, HT-29, HT29 cells, read-out: CTG HT29
pIC50: −log10 of the molar value.

Solved entries (count: 4):
| compound | pIC50 |
| --- | --- |
| Cc1ccc2cc1CNC(=O)[C@H](CCc1ccccc1)NC(=O)[C@@H](NC(=O)C1(N)COC1)CC(=O)N1CCCC(CCO2)C1 (some centres unmarked) | > 7.00 |
| COc1cccc(CC(=O)N[C@H]2CC(=O)N3CCCC(CCOc4ccc(C)c(c4)CNC(=O)C(c4cnn(C)c4)NC2=O)C3)c1 (some centres unmarked) | > 7.00 |
| CC(=O)N[C@H]1CC(=O)N2CCCC(CCOc3ccc(C)c(c3)CNC(=O)C(CCc3nccs3)NC1=O)C2 (some centres unmarked) | > 7.00 |
| C=CS(=O)(=O)N[C@H]1CC(=O)N2CCCC(CCOc3ccc(C)c(c3)CNC(=O)[C@H](CCc3ccccc3)NC1=O)C2 (some centres unmarked) | > 7.00 |

Here is another compound to look at.
So what's the measured pIC50 for this one? Cc1ccc2cc1CNC(=O)[C@H](Cc1ccccc1)NC(=O)CCC(=O)N1CCCC(CCO2)C1 (some centres unmarked) 5.30 to 6.00

###

Test system: hPMBC
assay overview: Chymotrypsin-like ProteasomeGlo assay in hPBMC
Format: cell-based
test context: Homo sapiens; read-out: Pglo hPBMC
pIC50: −log10 of the molar value.
// pIC50 lookup, one value per entry

| compound | result |
| --- | --- |
| Cc1ccc2cc1CNC(=O)[C@H](CCc1ccccc1)NC(=O)[C@@H](NC(=O)C1CCNCC1(F)F)CC(=O)N1CCCC(CCO2)C1 (some centres unmarked) | > 7.00 |
| C=CC(=O)N[C@H]1CC(=O)N2CCCC(CCOc3ccc(C)c(c3)CNC(=O)[C@H](CCc3ccccc3)NC1=O)C2 (some centres unmarked) | > 7.00 |
| CC(=O)N[C@H]1CC(=O)N2CCCC(CCOc3ccc(C)c(c3)CNC(=O)C(c3cc(C)sn3)NC1=O)C2 (some centres unmarked) | > 7.00 |
| CCC(CC)(CO)C(=O)N[C@H]1CC(=O)N2CCCC(CCOc3ccc(C)c(c3)CNC(=O)[C@H](CCc3ccccc3)NC1=O)C2 (some centres unmarked) | > 7.00 |
| Cc1ccc2cc1CNC(=O)C(c1cnn(C)c1)NC(=O)[C@@H](NC(=O)[C@@H](C)c1ccccc1)CC(=O)N1CCCC(CCO2)C1 (some centres unmarked) | > 7.00 |

Consider the compound Cc1ccc2cc1CNC(=O)[C@H](CCc1ccccc1)NC(=O)[C@@H](NS(=O)(=O)Cc1ccccc1)CC(=O)N1CCCC(CCO2)C1 (some centres unmarked) and give its measured pIC50. > 7.00

Look up pIC50 for this compound: Cc1ccc2cc1CNC(=O)[C@H](CCc1ccccc1)NC(=O)[C@@H](NC(=O)OCc1ccccc1)CCCC(=O)N1CCC(CCO2)C1 (some centres unmarked) 6.30 to 7.00

Can you share its pIC50? I mean this compound: CCOC(=O)N[C@H]1CC(=O)N2CCCC(CCOc3ccc(C)c(c3)CNC(=O)C(c3cnn(C)c3)NC1=O)C2 (some centres unmarked) > 7.00
